# EC50 values compiled below
- assay.system: UniProt:P10520
- Sequence (P10520 whole entry): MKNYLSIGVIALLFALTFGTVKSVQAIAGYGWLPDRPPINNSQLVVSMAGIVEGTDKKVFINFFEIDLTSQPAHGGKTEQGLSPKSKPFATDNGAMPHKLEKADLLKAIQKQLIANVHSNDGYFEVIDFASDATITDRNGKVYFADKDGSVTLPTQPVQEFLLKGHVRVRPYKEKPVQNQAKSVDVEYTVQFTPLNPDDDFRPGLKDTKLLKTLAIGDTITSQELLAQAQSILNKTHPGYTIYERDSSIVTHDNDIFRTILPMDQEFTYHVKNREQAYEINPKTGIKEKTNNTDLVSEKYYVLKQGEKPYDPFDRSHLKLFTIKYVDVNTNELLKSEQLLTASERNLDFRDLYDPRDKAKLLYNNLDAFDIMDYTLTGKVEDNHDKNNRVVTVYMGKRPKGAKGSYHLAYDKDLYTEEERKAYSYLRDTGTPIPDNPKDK
- test.protocol: viability-normalized secreted streptokinase activity reduction – plasminogen activation absorbance, OD405, dose response (AID 1914);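 also: secreted streptokinase activity via plasminogen activation per viability signal from cell pellet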
- Assay type: functional, Streptococcus pyogenes M1 GAS
Activity calls are given as the source filed them.

INSERT INTO assay_data (compound, outcome_measure, reported_measurement) VALUES
  ('O=C(/C(=N\Nc1ccc([N+](=O)[O-])cc1)Sc1nnnn1-c1ccccc1)c1ccccc1', 'EC50', '> 150 µM (not active)'),
  ('CCc1ccc(Nc2n[n+](-c3ccccc3)c(-c3c(Cl)cccc3Cl)s2)cc1', 'EC50', '7.4 µM (active)');

Query: I have this compound here, "CCOC(=O)c1c(S(=O)(=O)N2CCCCCC2)c(C)n(C)c1C" , and I need its recorded EC50.
Response: > 150 µM (not active)

Query: I have this compound here, CCOC(=O)C1=C(C)N=c2s/c(=C\c3ccc(O)c([N+](=O)[O-])c3)c(=O)n2C1c1ccccc1OC (configuration not stated) , and I need its recorded EC50.
Response: 20.4 µM (active)

Query: I have this compound here, "Cc1oc2cc(Br)c(O)c(Br)c2c1-c1ccccc1" , and I need its recorded EC50.
Response: > 150 µM (not active)

====

- assay.system: Genome polyprotein (dengue virus type 2, UniProt P29990)
- test.protocol: flavivirus cap methylation enzyme inhibition – biochemical, confirmation dose response, primary screen (AID 588689)
- Assay type: functional
The source made the active and inactive calls.
outcome.measure: IC50

Recorded IC50, per entry:
INSERT INTO measurements (molecule, outcome_measure, reported_measurement) VALUES
  ('O=C(O)C(Cc1ccccc1)N1C(=O)c2c(Cl)c(Cl)c(Cl)c(Cl)c2C1=O (configuration not stated)', 'IC50', '39.7 µM (active)'),
  ('O=C1C(Cl)=C(Nc2ccc3cn[nH]c3c2)C(=O)c2ccccc21', 'IC50', '18.7 µM (active)'),
  ('COc1cc(C(c2c(C)[nH]n(-c3ccccc3)c2=O)c2c(C)[nH]n(-c3ccccc3)c2=O)cc(OC)c1OC', 'IC50', '38.3 µM (active)'),
  ('O=[N+]([O-])c1c(NCCO)cc(Sc2nc3ccccc3s2)c2nonc12', 'IC50', '75.8 µM (active)'),
  ('COc1ccc(/C=N/NC2=NC(=O)C(CC(=O)O)S2)cc1OCc1ccc(Cl)cc1Cl (configuration not stated)', 'IC50', '59.4 µM (active)'),
  ('CCCCC1=CC2=CC(=O)C(C)(OC(=O)CC)C(=O)C2=CN1Cc1ccc(OC)cc1 (configuration not stated)', 'IC50', '> 100 µM (active)');

With those in mind, consider the next molecule.
Query: I have this molecule here, "Cc1ccc(-n2c3nc(=O)[nH]c(=O)c-3cc3cc([N+](=O)[O-])ccc32)cc1" , and I need its recorded IC50.
Response: 22.9 µM (active)

====

# AC50 values compiled below
- test.protocol: Luminescence Cell-Based Dose Retest to Confirm Inhibitors of Cancer Stem Cells. [Related pubchem assays (depositor defined):AID2717, AID2721]
- Type: functional
- condition.parameters: Homo sapiens
Calls of active or inactive are those of the source.

INSERT INTO assay_data (compound, reported_measurement) VALUES
  ('COCCNC(=O)c1cnc2ccc(S(=O)(=O)N3CCc4ccccc43)cc2c1O', '2.32 µM (active)'),
  ('O=C(NCCCN1CCOCC1)c1ccc(CSc2ccc(Cl)cc2)cc1', '1.25 µM (active)'),
  ('c1ccc(-c2cc(-c3ccncc3)nc3ccc4ccccc4c23)cc1', '3.39 µM (active)'),
  ('CS(=O)(=O)Nc1ccccc1C(=O)Nc1cccc(Cl)c1', '45.2 µM (active)');

With those in mind, consider the next compound.
Query: I have this compound here, "O=C(Nc1cccc(C(F)(F)F)c1)Nc1ccc(N2CCCC2)c(S(=O)(=O)Nc2ccccc2Cl)c1" , and I need its recorded AC50.
Response: 0.848 µM (active)

====

- assay.system: Protein RecA (Mycobacterium tuberculosis, UniProt P9WHJ3)
- Sequence (P9WHJ3 whole entry): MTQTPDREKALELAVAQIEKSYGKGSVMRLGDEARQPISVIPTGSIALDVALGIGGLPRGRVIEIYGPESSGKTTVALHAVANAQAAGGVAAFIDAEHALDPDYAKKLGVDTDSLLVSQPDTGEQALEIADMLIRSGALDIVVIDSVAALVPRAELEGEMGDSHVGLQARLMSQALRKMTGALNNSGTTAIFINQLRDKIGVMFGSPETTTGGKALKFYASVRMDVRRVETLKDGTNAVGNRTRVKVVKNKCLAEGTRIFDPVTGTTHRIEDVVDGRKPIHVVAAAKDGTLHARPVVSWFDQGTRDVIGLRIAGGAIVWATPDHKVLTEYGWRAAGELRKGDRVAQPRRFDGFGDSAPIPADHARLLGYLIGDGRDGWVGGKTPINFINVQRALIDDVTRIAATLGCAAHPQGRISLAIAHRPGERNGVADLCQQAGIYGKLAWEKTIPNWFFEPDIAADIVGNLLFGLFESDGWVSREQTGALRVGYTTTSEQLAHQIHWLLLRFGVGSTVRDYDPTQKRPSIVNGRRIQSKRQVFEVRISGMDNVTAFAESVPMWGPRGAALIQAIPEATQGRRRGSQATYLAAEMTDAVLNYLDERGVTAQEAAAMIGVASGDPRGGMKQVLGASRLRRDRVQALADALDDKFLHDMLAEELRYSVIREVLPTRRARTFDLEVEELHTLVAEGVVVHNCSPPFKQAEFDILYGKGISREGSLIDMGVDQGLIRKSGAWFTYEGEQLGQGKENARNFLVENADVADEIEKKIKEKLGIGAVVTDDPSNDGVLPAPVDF
- test.protocol: Fluorescence Cell-Free Homogeneous Dose Retest to Identify Inhibitors of RecA-Intein Splicing Activity. [Related pubchem assays (depositor defined):AID2097, AID2223, AID489010, AID492950]
- Format: functional
Activity calls are given as the source filed them.
# EC50 values compiled below

Recorded EC50, per entry:
INSERT INTO measurements (molecule, reported_measurement) VALUES
  ('CCOC(=O)c1c(C)[nH]c2c1-c1ccccc1C(=O)C2=O', '1.82 µM (active)'),
  ('CCOc1cc(/C=C(/C#N)C(=O)Nc2ccc(O)cc2)cc(Br)c1O', '3.28 µM (active)'),
  ('O=C(CCCN1C(=O)/C(=C\c2ccccc2)SC1=S)Nc1ccc(O)cc1C(=O)O', '15.1 µM (active)');

Query: I have this molecule here, CC(NC(=O)/C(C#N)=C/c1ccc([N+](=O)[O-])o1)c1ccccc1 (stereo unspecified) , and I need its recorded EC50.
Response: 35 µM (active)

Query: I have this molecule here, "Cc1nc(Nc2ccc(O)cc2)c2c3c(sc2n1)CCCC3" , and I need its recorded EC50.
Response: 125 µM (active)

Query: I have this molecule here, "CCc1ccc(Nc2n[n+](-c3ccccc3)c(-c3c(Cl)cccc3Cl)s2)cc1" , and I need its recorded EC50.
Response: 9.38 µM (active)

Query: I have this molecule here, "COc1ccc(Br)cc1[C@H]1[C@H]2C=CC[C@@H](C)[C@@H]2C(=O)N1Cc1ccccc1" , and I need its recorded EC50.
Response: 163 µM (active)

Query: I have this molecule here, CC(C)c1n[nH]c2c1C(c1cccc(OC(=O)N3CCOCC3)c1)C(C#N)=C(N)O2 (stereo unspecified) , and I need its recorded EC50.
Response: 5.8 µM (active)

Query: I have this molecule here, "CCOC(=O)c1c(C)oc2c1c(/C=N/CCC(=O)O)c(O)c1ccccc12" , and I need its recorded EC50.
Response: 0.39 µM (active)

Query: I have this molecule here, N#CC1=C(N)Oc2[nH]nc(-c3ccc(F)cc3)c2C1c1ccncc1 (stereo unspecified) , and I need its recorded EC50.
Response: 5.79 µM (active)

Query: I have this molecule here, "CCOC(=O)c1nc(O)c2ccccc2c1O" , and I need its recorded EC50.
Response: 5.23 µM (active)

====

- assay.system: Exodeoxyribonuclease V (Escherichia coli (strain K12), UniProt P04993+P07648+P08394)
- Sequence (P04993 whole entry): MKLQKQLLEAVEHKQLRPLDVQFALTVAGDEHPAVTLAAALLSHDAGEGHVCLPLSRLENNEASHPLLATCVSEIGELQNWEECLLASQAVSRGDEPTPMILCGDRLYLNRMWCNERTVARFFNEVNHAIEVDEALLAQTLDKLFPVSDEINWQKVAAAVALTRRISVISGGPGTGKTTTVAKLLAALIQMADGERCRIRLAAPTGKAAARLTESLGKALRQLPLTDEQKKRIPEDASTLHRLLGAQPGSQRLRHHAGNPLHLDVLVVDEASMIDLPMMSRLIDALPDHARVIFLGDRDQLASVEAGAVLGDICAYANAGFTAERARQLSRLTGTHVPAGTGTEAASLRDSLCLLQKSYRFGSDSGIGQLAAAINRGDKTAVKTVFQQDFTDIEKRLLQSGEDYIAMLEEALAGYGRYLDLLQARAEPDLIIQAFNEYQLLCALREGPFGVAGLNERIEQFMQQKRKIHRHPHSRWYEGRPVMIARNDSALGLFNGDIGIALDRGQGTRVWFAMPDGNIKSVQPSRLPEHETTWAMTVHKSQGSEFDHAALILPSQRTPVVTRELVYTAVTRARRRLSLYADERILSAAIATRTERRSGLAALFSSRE
- Sequence (P07648 whole entry): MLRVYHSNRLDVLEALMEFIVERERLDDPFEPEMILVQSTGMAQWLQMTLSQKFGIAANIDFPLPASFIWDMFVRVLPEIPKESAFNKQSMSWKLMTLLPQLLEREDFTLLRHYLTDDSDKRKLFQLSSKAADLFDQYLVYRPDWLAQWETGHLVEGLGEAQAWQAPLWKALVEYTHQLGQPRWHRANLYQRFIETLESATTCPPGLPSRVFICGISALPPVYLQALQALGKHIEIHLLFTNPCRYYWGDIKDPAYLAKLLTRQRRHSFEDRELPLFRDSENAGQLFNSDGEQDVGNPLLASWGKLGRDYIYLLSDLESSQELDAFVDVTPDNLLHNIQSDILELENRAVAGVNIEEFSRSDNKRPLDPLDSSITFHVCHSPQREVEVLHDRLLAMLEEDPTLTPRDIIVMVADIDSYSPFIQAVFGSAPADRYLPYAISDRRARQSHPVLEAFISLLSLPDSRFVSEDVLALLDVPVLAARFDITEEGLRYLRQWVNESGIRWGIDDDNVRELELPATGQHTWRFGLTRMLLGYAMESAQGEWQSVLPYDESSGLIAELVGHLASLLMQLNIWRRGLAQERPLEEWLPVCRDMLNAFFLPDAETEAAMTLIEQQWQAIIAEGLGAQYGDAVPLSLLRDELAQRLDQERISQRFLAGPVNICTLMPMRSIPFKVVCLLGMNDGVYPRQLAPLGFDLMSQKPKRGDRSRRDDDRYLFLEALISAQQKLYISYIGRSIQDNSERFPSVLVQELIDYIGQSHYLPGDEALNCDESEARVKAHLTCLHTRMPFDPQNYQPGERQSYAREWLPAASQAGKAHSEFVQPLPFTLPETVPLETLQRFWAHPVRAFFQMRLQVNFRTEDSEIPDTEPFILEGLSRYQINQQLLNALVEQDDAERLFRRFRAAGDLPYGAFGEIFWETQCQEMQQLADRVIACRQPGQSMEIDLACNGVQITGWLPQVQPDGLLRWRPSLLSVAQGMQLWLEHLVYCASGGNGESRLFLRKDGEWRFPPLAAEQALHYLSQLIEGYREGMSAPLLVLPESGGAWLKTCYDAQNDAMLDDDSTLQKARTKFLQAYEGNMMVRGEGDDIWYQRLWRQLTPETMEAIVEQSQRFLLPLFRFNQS
- Sequence (P08394 whole entry): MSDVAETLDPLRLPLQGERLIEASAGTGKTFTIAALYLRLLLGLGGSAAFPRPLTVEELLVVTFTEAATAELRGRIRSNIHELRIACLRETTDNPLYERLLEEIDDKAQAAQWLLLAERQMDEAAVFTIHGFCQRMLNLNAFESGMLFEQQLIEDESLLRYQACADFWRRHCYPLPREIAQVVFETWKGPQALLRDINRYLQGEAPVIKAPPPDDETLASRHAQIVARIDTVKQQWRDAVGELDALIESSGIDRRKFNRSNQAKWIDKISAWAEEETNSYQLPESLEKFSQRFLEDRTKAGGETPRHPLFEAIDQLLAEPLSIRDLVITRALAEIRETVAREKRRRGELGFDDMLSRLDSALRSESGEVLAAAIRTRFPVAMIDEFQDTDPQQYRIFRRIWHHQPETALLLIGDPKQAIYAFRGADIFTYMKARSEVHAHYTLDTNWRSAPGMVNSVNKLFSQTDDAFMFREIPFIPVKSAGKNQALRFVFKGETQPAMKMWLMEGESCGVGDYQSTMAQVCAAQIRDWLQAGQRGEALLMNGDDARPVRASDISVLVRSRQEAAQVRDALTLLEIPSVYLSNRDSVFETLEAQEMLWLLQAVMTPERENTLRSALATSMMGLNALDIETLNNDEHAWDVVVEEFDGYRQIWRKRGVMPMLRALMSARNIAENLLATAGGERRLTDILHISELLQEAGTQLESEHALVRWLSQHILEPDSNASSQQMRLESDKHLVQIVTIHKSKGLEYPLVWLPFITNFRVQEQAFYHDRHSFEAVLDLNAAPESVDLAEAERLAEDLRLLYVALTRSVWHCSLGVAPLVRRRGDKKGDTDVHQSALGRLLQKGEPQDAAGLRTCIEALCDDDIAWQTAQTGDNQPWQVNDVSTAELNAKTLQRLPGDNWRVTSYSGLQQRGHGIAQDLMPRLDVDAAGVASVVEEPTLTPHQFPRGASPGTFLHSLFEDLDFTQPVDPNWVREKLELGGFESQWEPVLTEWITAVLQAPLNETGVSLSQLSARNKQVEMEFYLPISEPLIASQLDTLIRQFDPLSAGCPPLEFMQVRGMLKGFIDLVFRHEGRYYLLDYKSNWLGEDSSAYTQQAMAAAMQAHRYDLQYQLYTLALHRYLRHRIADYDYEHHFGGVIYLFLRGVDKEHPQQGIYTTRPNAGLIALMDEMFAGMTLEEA
- test.protocol: RecBCD inhibition via phage-restricted bacterial growth – absorbance, V66 E. coli, mutant T4 phage, counter-screen for AddAB inhibitor project, dose response (AID 492957)
- Format: functional, cell-based, Escherichia coli str. K-12 substr. MG1655
Calls of active or inactive are those of the source.
outcome.measure: IC50

Recorded IC50, per entry:
INSERT INTO results (molecule, reported_measurement) VALUES
  ('C/C(=N\Nc1ccc2nncn2n1)c1ccccn1', '57.1 µM (inactive)'),
  ('O=C(Cn1cnc2ccccc21)Nc1ccc2c(c1)OCCCO2', '> 119 µM (inactive)'),
  ('CC(=O)NC(c1ccc2ccccc2c1)c1ccc2cccnc2c1O (centres undefined)', '> 118 µM (inactive)');

Query: Recorded IC50 for C/C(=N\NC1=NC(=O)C(CC(=O)O)S1)c1ccccn1 (centres undefined) with Exodeoxyribonuclease V (Escherichia coli (strain K12), UniProt P04993+P07648+P08394), please?
Response: 73.3 µM (inactive)
